# assay.remarks: in vitro
# Type: in vitro ADME
# condition.label: simulated intestinal fluid, pancreatin, pH 6.8, 37° C.; § matrix is 100 fold dilution of standard SIF concentration
Readings of SIF t½ for the listed molecules
Value and unit, in that order.

CC(=O)NCCCC[C@H](NC(=O)[C@](C)(CC(C)C)NC(=O)[C@H](Cc1ccc2ccccc2c1)NC(=O)[C@H](Cc1ccc(OCCN)cc1)NC(=O)[C@H]1NC(=O)[C@H](CCC(N)=O)NC(=O)[C@H](Cc2c[nH]c3ccc(F)cc23)NC(=O)[C@H]([C@@H](C)O)NC(=O)[C@H](CC(N)=O)NC(=O)[C@@H](NC(C)=O)C(C)(C)SSC1(C)C)C(=O)N[C@@H](CC(N)=O)C(=O)N[C@@H](CC(N)=O)C(N)=O [compound 7]	24 h

With those in mind, consider the next molecule.
## Task Any idea what SIF t½ was measured for COc1cccc2[nH]cc(C[C@@H]3NC(=O)[C@H]([C@@H](C)O)NC(=O)[C@H](CC(N)=O)NC(=O)[C@@H](NC(C)=O)C(C)(C)SSC(C)(C)[C@@H](C(=O)N[C@@H](Cc4ccc(OCCN)cc4)C(=O)N[C@@H](Cc4ccc5ccccc5c4)C(=O)N[C@@](C)(CC(C)C)C(=O)N[C@@H](CCCCNC(C)=O)C(=O)N[C@@H](CC(N)=O)C(=O)N[C@@H](CC(N)=O)C(N)=O)NC(=O)[C@H](CCC(N)=O)NC3=O)c12 [compound 4] ?
## Result 24 h

====

# assay.remarks: in vitro
# condition.label: cynomolgus monkey, 20% fecal homogenate (supernatant), anaerobic, pH 6.8
Bridge positions count the residues as written; N and C are the ends. Square brackets hold non-standard residues; d marks the D form. Peptide text beside a SMILES is read from it. Trp(7-Me) = Cc1cccc2c(C[C@H](N)C(=O)O)c[nH]c12; Trp(1-Me) = Cn1cc(C[C@H](N)C(=O)O)c2ccccc21; 2Nal = N[C@@H](Cc1ccc2ccccc2c1)C(=O)O; AEF = NCCOc1ccc(C[C@H](N)C(=O)O)cc1; Cit = NC(=O)NCCC[C@H](N)C(=O)O; Pen = CC(C)(S)[C@H](N)C(=O)O; αMeK = C[C@](N)(CCCCN)C(=O)O; βAla = NCCC(=O)O
result.type: half-life at 20 μM (h)
Answer in h, number only, no unit symbol.

Some solved entries appear below for comparison.
CC(=O)NCCCC[C@H](NC(=O)[C@](C)(CCCCN)NC(=O)[C@H](Cc1ccc2ccccc2c1)NC(=O)[C@H](Cc1ccc(OCCN)cc1)NC(=O)[C@H]1NC(=O)[C@H](CCCNC(N)=O)NC(=O)[C@H](Cc2c[nH]c3c(C)cccc23)NC(=O)[C@H]([C@@H](C)O)NC(=O)[C@H](CC(N)=O)NC(=O)[C@@H](NC(C)=O)C(C)(C)SSC1(C)C)C(=O)N[C@@H](CC(N)=O)C(=O)N[C@@H](C(N)=O)[C@H](C)O [compound 263] (Ac-[Pen]NT[Trp(7-Me)][Cit][Pen][AEF][2Nal][αMeK]K(Ac)N[dT]-NH2; disulfide 1-6)	9
CCC(CC)(NC(=O)[C@H](Cc1ccc2ccccc2c1)NC(=O)[C@H](Cc1ccc(OCCN)cc1)NC(=O)[C@H]1NC(=O)[C@H](CCC(N)=O)NC(=O)[C@H](Cc2c[nH]c3c(C)cccc23)NC(=O)[C@H]([C@@H](C)O)NC(=O)[C@H](CC(N)=O)NC(=O)[C@@H](NC(C)=O)C(C)(C)SSC1(C)C)C(=O)N[C@@H](CCCCNC(C)=O)C(=O)N[C@@H](CC(N)=O)C(=O)NCCC(N)=O [compound 276]	13
CC(=O)NCCCC[C@@H]1NC(=O)[C@H](Cc2c[nH]c3c(C)cccc23)NC(=O)[C@H]([C@@H](C)O)NC(=O)[C@H](CC(N)=O)NC(=O)[C@@H](NC(C)=O)C(C)(C)SSC(C)(C)[C@@H](C(=O)N[C@@H](Cc2ccc(OCCN)cc2)C(=O)N[C@@H](Cc2ccc3ccccc3c2)C(=O)N[C@@](C)(CCCCN)C(=O)N[C@@H](CCCCNC(C)=O)C(=O)N[C@@H](CC(N)=O)C(=O)N[C@H](C(N)=O)C(C)C)NC1=O [compound 250]	12

## Task Any idea what half-life at 20 μM was measured for CC(=O)NCCCC[C@H](NC(=O)[C@](C)(CCCCN)NC(=O)[C@H](Cc1cn(C)c2ccccc12)NC(=O)[C@H](Cc1ccc(OCCN)cc1)NC(=O)[C@H]1NC(=O)[C@H](CCC(N)=O)NC(=O)[C@H](Cc2c[nH]c3c(C)cccc23)NC(=O)[C@H]([C@@H](C)O)NC(=O)[C@H](CC(N)=O)NC(=O)[C@@H](NC(C)=O)C(C)(C)SSC1(C)C)C(=O)N[C@@H](CC(N)=O)C(=O)NCCC(N)=O [compound 283] (Ac-[Pen]NT[Trp(7-Me)]Q[Pen][AEF][Trp(1-Me)][αMeK]K(Ac)N[βAla]-NH2; disulfide 1-6) ?
## Result 17

====

Readings of IC50 for the listed compounds
# measured.target: IL-23R (Homo sapiens, UniProt Q5VWK5)
# Sequence (Q5VWK5 24-629): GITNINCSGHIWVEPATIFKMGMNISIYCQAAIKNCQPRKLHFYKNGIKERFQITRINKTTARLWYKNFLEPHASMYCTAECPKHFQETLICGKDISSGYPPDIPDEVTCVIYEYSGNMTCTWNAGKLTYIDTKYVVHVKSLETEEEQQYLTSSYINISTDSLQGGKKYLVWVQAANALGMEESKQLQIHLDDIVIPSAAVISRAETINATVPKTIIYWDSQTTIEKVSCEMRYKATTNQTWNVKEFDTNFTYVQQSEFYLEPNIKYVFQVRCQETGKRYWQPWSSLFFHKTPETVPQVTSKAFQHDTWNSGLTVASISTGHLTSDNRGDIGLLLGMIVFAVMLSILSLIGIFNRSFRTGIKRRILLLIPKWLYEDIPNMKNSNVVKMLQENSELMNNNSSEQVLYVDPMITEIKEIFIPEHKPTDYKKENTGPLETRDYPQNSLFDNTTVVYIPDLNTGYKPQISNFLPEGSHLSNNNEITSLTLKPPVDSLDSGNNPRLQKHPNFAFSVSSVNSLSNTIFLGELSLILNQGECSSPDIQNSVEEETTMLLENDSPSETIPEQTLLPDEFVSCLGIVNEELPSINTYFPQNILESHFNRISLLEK
# assay.remarks: DB cells IL23R pSTAT3 cell assay (pStat3 HTRF)
# Type: cell-based
Numbered stars: 1 amine (or outer) side, 2 acyl side, 3 side chain; on linkers, the order of the positions; unused ones are H or OH. Bridge positions count the residues as written; N and C are the ends. Square brackets hold non-standard residues; d marks the D form. Peptide text beside a SMILES is read from it. X3 = CCc1ccc2c(C[C@H](N[*:1])C(=O)[*:2])c[nH]c2c1; 2Nal = N[C@@H](Cc1ccc2ccccc2c1)C(=O)O; AEF = NCCOc1ccc(C[C@H](N)C(=O)O)cc1; Pen = CC(C)(S)[C@H](N)C(=O)O; αMeK = C[C@](N)(CCCCN)C(=O)O

Some solved entries appear below for comparison.
COc1cccc2[nH]cc(C[C@H](NC(=O)[C@H](Cc3ccc(OCCN)cc3)NC(=O)[C@H]3NC(=O)[C@H](CCC(N)=O)NC(=O)[C@H](Cc4c[nH]c5ccccc45)NC(=O)[C@H]([C@@H](C)O)NC(=O)[C@H](CC(N)=O)NC(=O)[C@@H](NC(C)=O)C(C)(C)SSC3(C)C)C(=O)N[C@@](C)(CC(C)C)C(=O)N[C@@H](CCCCNC(C)=O)C(=O)N[C@@H](CC(N)=O)C(=O)N[C@@H](CC(N)=O)C(N)=O)c12 [compound 15]	> 0.1 µM
CC(=O)NCCCC[C@H](NC(=O)[C@](C)(CC(C)C)NC(=O)[C@H](Cc1ccc2ccccc2c1)NC(=O)[C@H](Cc1ccc(OCCN)cc1)NC(=O)[C@H]1NC(=O)[C@H](CCC(N)=O)NC(=O)[C@H](Cc2c[nH]c3cc(F)ccc23)NC(=O)[C@H]([C@@H](C)O)NC(=O)[C@H](CC(N)=O)NC(=O)[C@@H](NC(C)=O)C(C)(C)SSC1(C)C)C(=O)N[C@@H](CC(N)=O)C(=O)N[C@@H](CC(N)=O)C(N)=O [compound 3]	0.01 to 0.1 µM
CC(=O)NCCCC[C@H](NC(=O)[C@](C)(CC(C)C)NC(=O)[C@H](Cc1ccc2ccccc2c1)NC(=O)[C@H](Cc1ccc(OCCN)cc1)NC(=O)[C@H]1NC(=O)[C@H](CCC(N)=O)NC(=O)[C@H](Cc2c[nH]c3ccc(Br)cc23)NC(=O)[C@H]([C@@H](C)O)NC(=O)[C@H](CC(N)=O)NC(=O)[C@@H](NC(C)=O)C(C)(C)SSC1(C)C)C(=O)N[C@@H](CC(N)=O)C(=O)N[C@@H](CC(N)=O)C(N)=O [compound 11]	> 0.1 µM
CC(=O)NCCCC[C@H](NC(=O)[C@](C)(CC(C)C)NC(=O)[C@H](Cc1c[nH]c2ccc(Br)cc12)NC(=O)[C@H](Cc1ccc(OCCN)cc1)NC(=O)[C@H]1NC(=O)[C@H](CCC(N)=O)NC(=O)[C@H](Cc2c[nH]c3ccccc23)NC(=O)[C@H]([C@@H](C)O)NC(=O)[C@H](CC(N)=O)NC(=O)[C@@H](NC(C)=O)C(C)(C)SSC1(C)C)C(=O)N[C@@H](CC(N)=O)C(=O)N[C@@H](CC(N)=O)C(N)=O [compound 22]	0.001 to 0.01 µM
CCc1ccc2c(C[C@@H]3NC(=O)[C@H]([C@@H](C)O)NC(=O)[C@H](CC(N)=O)NC(=O)[C@@H](NC(C)=O)C(C)(C)SSC(C)(C)[C@@H](C(=O)N[C@@H](Cc4ccc(OCCN)cc4)C(=O)N[C@@H](Cc4ccc5ccccc5c4)C(=O)N[C@@](C)(CCCCN)C(=O)N[C@@H](CCCCNC(C)=O)C(=O)N[C@@H](CC(N)=O)C(=O)N[C@H](CCCCN)C(N)=O)NC(=O)[C@H](CCCCNC(C)=O)NC3=O)c[nH]c2c1 [compound 349] (Ac-[Pen]NT[X3]K(Ac)[Pen][AEF][2Nal][αMeK]K(Ac)N[dK]-NH2; disulfide 1-6)	0.001 to 0.01 µM

## Task Any idea what IC50 was measured for CC(=O)NCCCC[C@H](NC(=O)[C@](C)(CC(C)C)NC(=O)[C@H](Cc1c[nH]c2ccc(O)cc12)NC(=O)[C@H](Cc1ccc(OCCN)cc1)NC(=O)[C@H]1NC(=O)[C@H](CCC(N)=O)NC(=O)[C@H](Cc2c[nH]c3ccccc23)NC(=O)[C@H]([C@@H](C)O)NC(=O)[C@H](CC(N)=O)NC(=O)[C@@H](NC(C)=O)C(C)(C)SSC1(C)C)C(=O)N[C@@H](CC(N)=O)C(=O)N[C@@H](CC(N)=O)C(N)=O [compound 21] ?
## Result > 0.1 µM

## Task Query CC(=O)NCCCC[C@H](NC(=O)[C@](C)(CC(C)C)NC(=O)[C@H](Cc1ccc2ccccc2c1)NC(=O)[C@H](Cc1ccc(OCCN)cc1)NC(=O)[C@H]1NC(=O)[C@H](CCC(N)=O)NC(=O)[C@H](Cc2c[nH]c3ccc(Cl)cc23)NC(=O)[C@H]([C@@H](C)O)NC(=O)[C@H](CC(N)=O)NC(=O)[C@@H](NC(C)=O)C(C)(C)SSC1(C)C)C(=O)N[C@@H](CC(N)=O)C(=O)N[C@@H](CC(N)=O)C(N)=O [compound 1] next
## Result 0.01 to 0.1 µM

## Task Query COc1cccc2[nH]cc(C[C@@H]3NC(=O)[C@H]([C@@H](C)O)NC(=O)[C@H](CC(N)=O)NC(=O)[C@@H](NC(C)=O)C(C)(C)SSC(C)(C)[C@@H](C(=O)N[C@@H](Cc4ccc(OCCN)cc4)C(=O)N[C@@H](Cc4ccc5ccccc5c4)C(=O)N[C@@](C)(CC(C)C)C(=O)N[C@@H](CCCCNC(C)=O)C(=O)N[C@@H](CC(N)=O)C(=O)N[C@@H](CC(N)=O)C(N)=O)NC(=O)[C@H](CCC(N)=O)NC3=O)c12 [compound 4] next
## Result 0.001 to 0.01 µM

## Task Query CC(=O)NCCCC[C@H](NC(=O)[C@](C)(CC(C)C)NC(=O)[C@H](Cc1ccc2ccccc2c1)NC(=O)[C@H](Cc1ccc(OCCN)cc1)NC(=O)[C@H]1NC(=O)[C@H](CCC(N)=O)NC(=O)[C@H](Cc2c[nH]c3c(C)cccc23)NC(=O)[C@H]([C@@H](C)O)NC(=O)[C@H](CC(N)=O)NC(=O)[C@@H](NC(C)=O)C(C)(C)SSC1(C)C)C(=O)N[C@@H](CC(N)=O)C(=O)N[C@@H](CC(N)=O)C(N)=O [compound 6] next
## Result < 0.001 µM

## Task Query CC(=O)NCCCC[C@H](NC(=O)C1(NC(=O)[C@H](Cc2ccc3ccccc3c2)NC(=O)[C@H](Cc2ccc(OCCN)cc2)NC(=O)[C@@H]2CSCC[C@H](NC(C)=O)C(=O)N[C@@H](CCC(N)=O)C(=O)N[C@@H]([C@@H](C)O)C(=O)N[C@@H](Cc3c[nH]c4c(C)cccc34)C(=O)N[C@@H](CCC(N)=O)C(=O)N2)CCOCC1)C(=O)N[C@@H](CC(N)=O)C(=O)N[C@@H](CC(N)=O)C(N)=O [compound 30] next
## Result 0.001 to 0.01 µM
